System: NCI-H460
Protocol Description: NCI tumour cell line growth inhibition, 48 h
Activity calls are given as the source filed them. Cut-off read from the data, not from the text of the source: active = GI50 up to about 1.1 µM and inactive = higher.
Answer with one of the outcomes given here: t for active, f for inactive

molecule="CCOC(=O)CCC(NC(=O)OCc1ccccc1)C(=O)NC(CCC(=O)OCC)C(=O)NNC(=O)OC(C)(C)C (centres undefined)" label=f
molecule="CC1(C)OCC(C2OC(On3nnc4ccc(Cl)cc43)C3OC(C)(C)OC23)O1 (centres undefined)" label=f
molecule=O=C(Nn1cnn2c(=O)c3ccccc3nc2c1=O)c1ccccc1 label=f
molecule=NS(=O)(=O)c1ccc(NCc2cnc3ccccc3n2)cc1 label=f
molecule=Nc1nc(CCC(=O)Nc2cccc(C(F)(F)F)c2)cc(-c2cccc3ccccc23)n1 label=f

So what was the verdict on `CN(C)CC/C(=N\Nc1ccc(Cl)cc1)c1ccccc1` in this test?
t

So what was the verdict on `CSc1c(C(=O)Nc2ccc(C)cc2)c(N)n(N)c(=O)c1C#N` in this test?
f

So what was the verdict on `Cc1ccc(S(=O)(=O)N2CCC(C(=O)O)(c3ccccc3)CC2)cc1` in this test?
f

So what was the verdict on `COc1cc(O)c2c(=O)c3ccccc3n(C)c2c1` in this test?
f

So what was the verdict on Nc1ncnc2c1nnn2C1C=C(CO)C(O)C1O (centres undefined) in this test?
f

So what was the verdict on `CC(=O)c1c(P(=O)(OC(C)C)OC(C)C)nn(-c2ccc([N+](=O)[O-])cc2)c1C` in this test?
f

So what was the verdict on `COc1ccc2c(c1O)-c1cc(O)cc3c1[C@@H](C2)N(C)CC3` in this test?
f

So what was the verdict on `O=C(/C=C\c1ccc(Cl)c(Cl)c1)c1ccc(Cl)cc1Cl` in this test?
f

So what was the verdict on `CCOC(=O)c1c(NC(=O)c2ccccc2)c(C#N)c2n1CCCCC2` in this test?
f

So what was the verdict on COC(=O)C12OCC34C(CC5C(C)=CC(=O)C(O)C5(C)C3C(O)C1O)OC(=O)C(OC(=O)CC(C)C)C24 (centres undefined) in this test?
t

So what was the verdict on `CC(C)(C)N1Cc2ccccc2/C(=C/Sc2ccccc2)C1=O` in this test?
f

So what was the verdict on `Cc1ccc(CC(=O)Nc2ccc(NC(=O)/C=C/NC(=O)/C=C/c3ccc(-c4ccccc4)cc3)cc2C(=O)c2ccccc2)cc1` in this test?
f

So what was the verdict on CC(C)=C1CCC(CN2CCCC2)C1=O (centres undefined) in this test?
f

So what was the verdict on NC(CCP(=O)(O)CCC1C=CC=CC1)C(=O)O (centres undefined) in this test?
f

So what was the verdict on `CC(=O)c1cccc(N2COC(C)(C)c3nc4ccccc4n3C2)c1` in this test?
f

So what was the verdict on CCCCN(CCCC)CC(C(C)=O)C(c1ccccc1)c1c(O)c2ccccc2oc1=O (centres undefined) in this test?
f

So what was the verdict on `CC(=O)OC/C=C/Cn1ncc(=O)[nH]c1=O` in this test?
f

So what was the verdict on `COC(NC(=O)Nc1ccc(C)cc1)(C(F)(F)F)C(F)(F)F` in this test?
f

So what was the verdict on COc1ccc(CC2c3cc(Oc4cc(CC5c6cc(OC)c(OC)cc6CCN5C)ccc4O)c(OC)cc3CCN2C)cc1 (centres undefined) in this test?
f
